assay: urinary excretion and blood levels; format: in vivo, mice; details: mouse, urine; within six hours after administration; read-out: eliminated in the urine
property: dose excreted at 6 h

Note dose excreted at 6 h for the molecule shown: CO[C@@]1(NC(=O)CCC[C@@H](N)C(=O)O)C(=O)N2C(C(=O)O)=C(COC(N)=O)CS[C@@H]21 [Example 842A] ~100%
